- study.target: LRRK2 (human) (UniProt Q5S007)
- experiment.description: KINOMEscan competition binding
- recorded.conditions: compound 10.0 µM
measured.quantity: kinase still bound, per cent of control (%)
One number for each entry, in %.

Field request: kinase still bound, per cent of control | item: COc1cc(N2CCN(C)CC2)ccc1Nc1nc(N)c(C(=O)c2c(Cl)cccc2Cl)s1 81

One more compound: C[C@@H](Oc1cc(-n2cnc3ccc(CN4CCN(C)CC4)cc32)sc1C(N)=O)c1ccccc1C(F)(F)F 60

One more compound: CCOc1cc2ncc(C#N)c(Nc3ccc(OCc4ccccn4)c(Cl)c3)c2cc1NC(=O)/C=C/CN(C)C 99

One more compound: CCC(=O)N1CCN(c2ccc(-n3c(=O)ccc4cnc5ccc(-c6cnc7ccccc7c6)cc5c43)cc2C(F)(F)F)CC1 81

Quick one: give me kinase still bound, per cent of control for each item below, same order please.
1. CCN1CCN(Cc2ccc(Nc3ncc4c(n3)N(C)c3ccccc3C(=O)N4C)cc2C(F)(F)F)CC1
2. CCCS(=O)(=O)Nc1ccc(F)c(C(=O)c2c[nH]c3ncc(-c4ccc(Cl)cc4)cc23)c1F
3. Cc1ccc(NC(=O)c2cccc(C(C)(C)C#N)c2)cc1Nc1ccc2ncn(C)c(=O)c2c1

1. 15
2. 59
3. 32

###

- study.target: ACVR2A (human) (UniProt P27037)
- Sequence (P27037 whole entry, looked up): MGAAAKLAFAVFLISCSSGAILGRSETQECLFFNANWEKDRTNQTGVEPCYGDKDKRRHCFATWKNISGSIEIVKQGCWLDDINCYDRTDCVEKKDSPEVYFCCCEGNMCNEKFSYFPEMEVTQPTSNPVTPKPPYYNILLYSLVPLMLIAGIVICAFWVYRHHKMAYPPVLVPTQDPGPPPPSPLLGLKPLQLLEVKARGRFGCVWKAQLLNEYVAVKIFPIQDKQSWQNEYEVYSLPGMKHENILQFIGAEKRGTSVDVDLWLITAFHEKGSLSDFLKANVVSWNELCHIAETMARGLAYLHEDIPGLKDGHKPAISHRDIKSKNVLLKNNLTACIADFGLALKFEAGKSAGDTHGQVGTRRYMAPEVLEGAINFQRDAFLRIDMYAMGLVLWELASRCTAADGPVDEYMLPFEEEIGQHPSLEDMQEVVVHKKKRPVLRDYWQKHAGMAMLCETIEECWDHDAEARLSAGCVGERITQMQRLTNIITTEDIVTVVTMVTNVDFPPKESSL
- experiment.description: KINOMEscan competition binding
- recorded.conditions: compound 10.0 µM
measured.quantity: kinase still bound, per cent of control (%)
Numbers only, in %.

Sample answers from the record:
Field request: kinase still bound, per cent of control | item: OCCCNc1cc(-c2ccnc(Nc3cccc(Cl)c3)n2)ccn1 100

One more compound: C=CC(=O)Nc1cc(NC(=O)c2ccc(C)c(NC(=O)c3ccno3)c2)cc(C(F)(F)F)c1 100

One more compound: C=CC(=O)Nc1cccc(Nc2nc(N[C@H]3CC[C@H](N(C)C)CC3)nc3c2ncn3C(C)C)c1 97

Quick one: give me kinase still bound, per cent of control for each item below, same order please.
1. Cn1c(=O)n(-c2ccc(C(C)(C)C#N)cc2)c2c3cc(-c4cnc5ccccc5c4)ccc3ncc21
2. N#Cc1c(NC(=O)c2cccc3ccccc23)sc2c1CCCC2
3. C=CC(=O)Nc1cccc(Oc2nc(Nc3ccc(N4CCN(C)CC4)cc3OC)ncc2Cl)c1

1: 100; 2: 69; 3: 100

###

- study.target: ULK1 (human) (UniProt O75385)
- Sequence (O75385 whole entry, looked up): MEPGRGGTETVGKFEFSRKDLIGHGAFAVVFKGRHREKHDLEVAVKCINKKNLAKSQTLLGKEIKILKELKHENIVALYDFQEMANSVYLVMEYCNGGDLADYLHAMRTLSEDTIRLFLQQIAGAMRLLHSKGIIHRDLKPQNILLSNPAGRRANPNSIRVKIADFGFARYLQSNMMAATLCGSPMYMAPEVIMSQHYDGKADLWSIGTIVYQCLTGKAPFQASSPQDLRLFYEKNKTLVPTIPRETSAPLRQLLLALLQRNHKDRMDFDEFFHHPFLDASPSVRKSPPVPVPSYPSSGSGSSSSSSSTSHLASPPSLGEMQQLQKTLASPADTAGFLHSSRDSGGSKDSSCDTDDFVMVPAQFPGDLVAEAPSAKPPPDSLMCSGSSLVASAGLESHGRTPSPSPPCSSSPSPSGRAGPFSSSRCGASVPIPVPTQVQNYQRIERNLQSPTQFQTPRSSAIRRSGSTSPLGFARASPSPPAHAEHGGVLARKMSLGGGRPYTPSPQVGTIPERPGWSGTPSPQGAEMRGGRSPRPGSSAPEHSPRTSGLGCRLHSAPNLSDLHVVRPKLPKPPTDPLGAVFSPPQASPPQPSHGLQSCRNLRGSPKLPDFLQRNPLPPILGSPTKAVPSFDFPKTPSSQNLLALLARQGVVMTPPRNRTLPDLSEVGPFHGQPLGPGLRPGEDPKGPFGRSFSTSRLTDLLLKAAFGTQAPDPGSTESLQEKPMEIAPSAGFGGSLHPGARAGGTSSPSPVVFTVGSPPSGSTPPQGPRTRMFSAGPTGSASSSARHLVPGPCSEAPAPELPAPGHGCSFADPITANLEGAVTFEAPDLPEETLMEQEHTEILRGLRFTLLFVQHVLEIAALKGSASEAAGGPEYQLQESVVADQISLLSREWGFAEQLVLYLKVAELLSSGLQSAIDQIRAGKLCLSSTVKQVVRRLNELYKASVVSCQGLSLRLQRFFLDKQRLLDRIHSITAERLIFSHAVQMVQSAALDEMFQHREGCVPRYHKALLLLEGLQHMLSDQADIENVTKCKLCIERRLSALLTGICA
- experiment.description: KINOMEscan competition binding
- recorded.conditions: compound 10.0 µM
Provide the reported kinase still bound, per cent of control of each item.

Field request: kinase still bound, per cent of control | item: Cc1ccc(NC(=O)c2cccc(C(C)(C)C#N)c2)cc1Nc1ccc2ncn(C)c(=O)c2c1 94%

One more compound: C=CC(=O)Nc1cc(NC(=O)c2ccc(C)c(NC(=O)c3ccno3)c2)cc(C(F)(F)F)c1 100%

One more compound: Cc1cc([C@@H](C)Nc2ccccc2C(=O)O)c2nc(N3CCOCC3)cc(=O)n2c1 91%

Quick one: give me kinase still bound, per cent of control for each item below, same order please.
1. N#Cc1c(NC(=O)c2cccc3ccccc23)sc2c1CCCC2
2. CN(C)C/C=C/C(=O)Nc1cccc(Nc2ncc3c(n2)N(C)c2ccccc2C(=O)N3C)c1
3. C[C@@H](Oc1cc(-n2cnc3ccc(CN4CCN(C)CC4)cc32)sc1C(N)=O)c1ccccc1C(F)(F)F
4. O=C1Nc2ccc(I)cc2/C1=C/c1cc(Br)c(O)c(Br)c1
5. Nc1ccc(-c2ccc3ncc4ccc(=O)n(-c5cccc(C(F)(F)F)c5)c4c3c2)cn1
6. C=CC(=O)Nc1cccc(Oc2nc(Nc3ccc(N4CCN(C)CC4)cc3OC)ncc2Cl)c1
7. OCCCNc1cc(-c2ccnc(Nc3cccc(Cl)c3)n2)ccn1
8. CC[C@@H]1C(=O)N(C)c2cnc(Nc3ccc(C(=O)NC4CCN(C)CC4)cc3OC)nc2N1C1CCCC1

1. 100%
2. 0.15%
3. 41%
4. 100%
5. 96%
6. 1.6%
7. 100%
8. 100%

Quick one: give me kinase still bound, per cent of control for each item below, same order please.
1. COc1cc(C(=O)NC2CCN(C)CC2)ccc1Nc1ncc2c(n1)N(C1CCCC1)CCC(=O)N2C(C)C
2. CCOc1cc2ncc(C#N)c(Nc3ccc(OCc4ccccn4)c(Cl)c3)c2cc1NC(=O)/C=C/CN(C)C
3. Cc1ccc(C(=O)Nc2cccc(C(F)(F)F)c2)cc1Nc1cncc(C(N)=O)c1
4. CCC(=O)N1CCN(c2ccc(-n3c(=O)ccc4cnc5ccc(-c6cnc7ccccc7c6)cc5c43)cc2C(F)(F)F)CC1
5. COc1cc(N2CCN(C)CC2)ccc1Nc1nc(N)c(C(=O)c2c(Cl)cccc2Cl)s1
6. COc1cc(C(=O)NC2CCN(C)CC2)ccc1Nc1ncc2c(n1)N(C1CCCC1)C(C)CC(=O)N2C (centres undefined)
7. O=C(NOC[C@H](O)CO)c1ccc(F)c(F)c1Nc1ccc(I)cc1F

1: 100%; 2: 100%; 3: 100%; 4: 100%; 5: 93%; 6: 100%; 7: 100%

Field request: kinase still bound, per cent of control | item: Cn1c(=O)n(-c2ccc(C(C)(C)C#N)cc2)c2c3cc(-c4cnc5ccccc5c4)ccc3ncc21 100%

###

Provide the reported kinase still bound, per cent of control of each item.
- study.target: MAP4K4 (human)
- experiment.description: KINOMEscan competition binding
- recorded.conditions: compound 10.0 µM

Sample answers from the record:
Field request: kinase still bound, per cent of control | item: CCN1CCN(Cc2ccc(Nc3ncc4c(n3)N(C)c3ccccc3C(=O)N4C)cc2C(F)(F)F)CC1 81%

One more molecule: C=CC(=O)Nc1cc(NC(=O)c2ccc(C)c(NC(=O)c3ccno3)c2)cc(C(F)(F)F)c1 88%

One more molecule: O=C(NOC[C@H](O)CO)c1ccc(F)c(F)c1Nc1ccc(I)cc1F 69%

One more molecule: Nc1ccc(-c2ccc3ncc4ccc(=O)n(-c5cccc(C(F)(F)F)c5)c4c3c2)cn1 71%

One more molecule: CC[C@@H]1C(=O)N(C)c2cnc(Nc3ccc(C(=O)NC4CCN(C)CC4)cc3OC)nc2N1C1CCCC1 100%

Let us examine a further case.
Field request: kinase still bound, per cent of control | item: Cc1ccc(NC(=O)c2cccc(C(C)(C)C#N)c2)cc1Nc1ccc2ncn(C)c(=O)c2c1 10%

###

Provide the reported kinase still bound, per cent of control of each item.
- study.target: ROCK2 (human)
- experiment.description: KINOMEscan competition binding
- recorded.conditions: compound 10.0 µM
Give bare numbers, in %.

Field request: kinase still bound, per cent of control | item: COc1cc(N2CCN(C)CC2)ccc1Nc1nc(N)c(C(=O)c2c(Cl)cccc2Cl)s1 88

One more molecule: C[C@@H](Oc1cc(-n2cnc3ccc(CN4CCN(C)CC4)cc32)sc1C(N)=O)c1ccccc1C(F)(F)F 16

One more molecule: N#Cc1c(NC(=O)c2cccc3ccccc23)sc2c1CCCC2 100

One more molecule: CC[C@@H]1C(=O)N(C)c2cnc(Nc3ccc(C(=O)NC4CCN(C)CC4)cc3OC)nc2N1C1CCCC1 100

Let us examine a further case.
Field request: kinase still bound, per cent of control | item: Cc1cc([C@@H](C)Nc2ccccc2C(=O)O)c2nc(N3CCOCC3)cc(=O)n2c1 91

###

Provide the reported kinase still bound, per cent of control of each item.
- study.target: PI4KB (human) (UniProt Q9UBF8)
- Sequence (Q9UBF8 whole entry, looked up): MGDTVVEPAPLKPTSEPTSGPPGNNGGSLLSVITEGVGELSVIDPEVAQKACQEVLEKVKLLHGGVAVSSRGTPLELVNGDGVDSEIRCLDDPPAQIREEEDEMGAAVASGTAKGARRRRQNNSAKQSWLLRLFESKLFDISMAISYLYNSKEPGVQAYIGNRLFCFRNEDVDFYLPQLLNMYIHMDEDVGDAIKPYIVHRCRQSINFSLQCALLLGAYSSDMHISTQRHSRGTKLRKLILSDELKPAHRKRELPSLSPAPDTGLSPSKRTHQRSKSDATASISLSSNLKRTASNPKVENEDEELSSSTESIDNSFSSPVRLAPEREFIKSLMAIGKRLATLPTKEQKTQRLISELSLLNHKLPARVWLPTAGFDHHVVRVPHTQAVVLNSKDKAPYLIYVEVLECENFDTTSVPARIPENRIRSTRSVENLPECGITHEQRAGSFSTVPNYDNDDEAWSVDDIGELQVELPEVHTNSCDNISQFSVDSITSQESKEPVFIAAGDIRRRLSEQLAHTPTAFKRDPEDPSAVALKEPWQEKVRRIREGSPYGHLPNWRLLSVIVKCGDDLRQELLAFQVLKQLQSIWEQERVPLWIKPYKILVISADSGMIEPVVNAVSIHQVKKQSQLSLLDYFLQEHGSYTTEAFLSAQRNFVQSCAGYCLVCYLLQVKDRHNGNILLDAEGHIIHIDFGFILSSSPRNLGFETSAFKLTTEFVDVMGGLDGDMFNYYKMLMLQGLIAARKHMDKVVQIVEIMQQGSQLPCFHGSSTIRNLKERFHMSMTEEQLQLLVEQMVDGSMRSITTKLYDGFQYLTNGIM
- experiment.description: KINOMEscan competition binding
- recorded.conditions: compound 10.0 µM
One number for each entry, in %.

Field request: kinase still bound, per cent of control | item: O=C1Nc2ccc(I)cc2/C1=C/c1cc(Br)c(O)c(Br)c1 0.5

One more molecule: Cc1ccc2nc(NCCN)c3ncc(C)n3c2c1 100

One more molecule: C[C@@H](Oc1cc(-n2cnc3ccc(CN4CCN(C)CC4)cc32)sc1C(N)=O)c1ccccc1C(F)(F)F 100

One more molecule: Cc1ccc(NC(=O)c2cccc(C(C)(C)C#N)c2)cc1Nc1ccc2ncn(C)c(=O)c2c1 82

Let us examine a further case.
Field request: kinase still bound, per cent of control | item: C=CC(=O)Nc1cc(NC(=O)c2ccc(C)c(NC(=O)c3ccno3)c2)cc(C(F)(F)F)c1 88

###

Provide the reported kinase still bound, per cent of control of each item.
- study.target: CSNK1A1 (human) (UniProt P48729)
- Sequence (P48729 whole entry, looked up): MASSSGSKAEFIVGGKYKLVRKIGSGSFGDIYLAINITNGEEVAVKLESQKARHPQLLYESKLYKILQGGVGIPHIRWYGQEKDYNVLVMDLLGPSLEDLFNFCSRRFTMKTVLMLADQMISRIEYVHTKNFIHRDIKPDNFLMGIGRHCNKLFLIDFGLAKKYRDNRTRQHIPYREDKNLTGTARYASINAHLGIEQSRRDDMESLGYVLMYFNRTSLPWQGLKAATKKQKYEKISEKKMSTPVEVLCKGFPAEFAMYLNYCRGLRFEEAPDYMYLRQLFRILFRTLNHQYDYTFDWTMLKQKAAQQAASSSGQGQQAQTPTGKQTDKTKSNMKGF
- experiment.description: KINOMEscan competition binding
- recorded.conditions: compound 10.0 µM

Entry O=C(O)c1ccc(Nc2ncc3c(n2)-c2ccc(Cl)cc2C(c2c(F)cccc2F)=NC3)cc1 , system CSNK1A1 (human) (UniProt P48729): what kinase still bound, per cent of control was measured? 73%

Quick one: give me kinase still bound, per cent of control for each item below, same order please.
1. O=C1Nc2ccc(I)cc2/C1=C/c1cc(Br)c(O)c(Br)c1
2. COc1cc(N2CCN(C)CC2)ccc1Nc1nc(N)c(C(=O)c2c(Cl)cccc2Cl)s1
3. O=C(NOC[C@H](O)CO)c1ccc(F)c(F)c1Nc1ccc(I)cc1F
4. C[C@@H](Oc1cc(-n2cnc3ccc(CN4CCN(C)CC4)cc32)sc1C(N)=O)c1ccccc1C(F)(F)F

1. 81%
2. 84%
3. 100%
4. 91%
